Value source: patent US10696692B2

In this section, each of the compounds is paired with its reported pIC50.
- System Under Test: NAMPT (Homo sapiens (Human), UniProt P43490)
- Sequence (P43490 whole entry): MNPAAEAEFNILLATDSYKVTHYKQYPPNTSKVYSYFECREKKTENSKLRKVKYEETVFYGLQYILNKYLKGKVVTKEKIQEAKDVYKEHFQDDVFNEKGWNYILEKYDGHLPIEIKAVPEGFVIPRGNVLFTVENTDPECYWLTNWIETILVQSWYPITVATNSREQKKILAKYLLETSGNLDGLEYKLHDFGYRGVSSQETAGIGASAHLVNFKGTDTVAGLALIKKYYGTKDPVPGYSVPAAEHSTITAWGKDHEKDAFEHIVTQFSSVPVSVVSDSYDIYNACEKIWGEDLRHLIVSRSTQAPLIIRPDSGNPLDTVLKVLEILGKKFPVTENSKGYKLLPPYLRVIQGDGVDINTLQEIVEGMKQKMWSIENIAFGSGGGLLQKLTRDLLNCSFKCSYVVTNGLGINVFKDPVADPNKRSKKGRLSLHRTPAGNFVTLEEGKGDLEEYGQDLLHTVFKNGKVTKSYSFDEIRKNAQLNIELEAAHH
- Experiment Summary: Assay 1: Biochemical Inhibition Assay (NAMPT enzymatic reaction, NMN quantified by mass spectrometry)
- Assay Context: read-out: Biochemical (IC50)
Quick note: pIC50 values are minus log10 of concentrations in mol/L.

Here is how some compounds turned out for pIC50.
Compound	System Under Test	pIC50
O=C(NCc1ccc(S(=O)(=O)C2CCN(CC(F)(F)F)CC2)cc1)c1cnc2nccn2c1	NAMPT (Homo sapiens (Human), UniProt P43490)	8.43
O=C(NCc1ccc(S(=O)(=O)[C@@H]2CCOC2)cc1)c1ccc2nccn2c1	NAMPT (Homo sapiens (Human), UniProt P43490)	7.29
CC(C)(C)OC(=O)N1CCC2(CC1)CN(S(=O)(=O)c1ccc(CNC(=O)c3ccc4nccn4c3)cc1)CCO2	NAMPT (Homo sapiens (Human), UniProt P43490)	7.39

Name the recorded pIC50 of the compound listed here: CC(C)CN1CCC([S+]([O-])c2ccc(CNC(=O)c3cc4cnccc4[nH]3)cc2)CC1 (centres unmarked) [Example 191] 7.58

Item Nc1ncc2c(n1)CN(C(=O)NCc1ccc(S(=O)(=O)C3CCOCC3)cc1)C2 : provide pIC50 5.70

Answer with the recorded pIC50 of O=C(NCc1ccc(S(=O)(=O)N2CC(F)(F)C2)cc1)c1cc2ccncc2o1 only. 7.33

Respond only with pIC50 recorded for CC(C)(C)OC(=O)N1CCC2(CCCN2S(=O)(=O)c2ccc(CNC(=O)c3ccc4nccn4c3)cc2)CC1 6.55

In one line, give reported pIC50 of the entry O=C(NCc1ccc(S(=O)(=O)N2CC3CCC(C2)O3)cc1)c1cc2ccncc2o1 . 7.38

###

- System Under Test: NAMPT (Homo sapiens (Human))
- Experiment Summary: Assay 1: Biochemical Inhibition Assay (NAMPT enzymatic reaction, NMN quantified by mass spectrometry)
- Assay Context: read-out: Biochemical (IC50)
Parameter: pIC50
Bear in mind: pIC50 is minus log10 of a mol/L concentration; give just that figure.

Compound	pIC50
O=C(NCc1ccc([S+]([O-])C2CCN(C3CCOCC3)CC2)cc1)N1Cc2ccncc2C1 (stereo not shown) [Example 365]	8.69

Answer with reported pIC50 of O=C(NCc1ccc(S(=O)(=O)N2C[C@@H]3C[C@H]2CO3)cc1)c1ccc2nccn2c1 [Example 84] 7.43

Report pIC50, nothing else, for this compound: CC(C)CN1CCC([S+]([O-])c2ccc(CNC(=O)N3Cc4ccncc4C3)cc2)CC1 (stereo not shown) [Example 374] 7.82

Please look at this compound and report its pIC50: CC(C)(C)OC(=O)N1CCCC12CCCN(S(=O)(=O)c1ccc(CNC(=O)c3ccc4nccn4c3)cc1)CC2 (racemic) [Example 183] 8.05

Report pIC50 for O=C(NCc1ccc(S(=O)(=O)N2CCC[C@@H](O)C2)cc1)c1cc2ccncc2o1 [Example 151] 7.56

Note down pIC50 recorded for CC(=O)N1CCCN(S(=O)(=O)c2ccc(CNC(=O)c3ccc4nccn4c3)cc2)CC1 [Example 100] 7.59

Answer with the recorded pIC50 of CN1CCCC12CN(S(=O)(=O)c1ccc(CNC(=O)c3ccc4nccn4c3)cc1)C2 [Example 273] only. 7.60

// Input: CN1CC2CCN(S(=O)(=O)c3ccc(CNC(=O)c4ccc5nccn5c4)cc3)C2C1 (racemic) [Example 143] . Output its pIC50 only. 7.00

Give the measured pIC50 for CC(C)(C)OC(=O)NC1CCN(S(=O)(=O)c2ccc(CNC(=O)c3ccc4nccn4c3)cc2)CC1 [Example 55] 8.11

Quick one: give measured pIC50 for O=C(NCc1ccc(S(=O)(=O)N2CCC3(CNC3)C2)cc1)c1ccc2nccn2c1 [Example 215] 7.09

Give the reported value of pIC50 for this record: O=C(NCc1ccc(S(=O)(=O)C2CCOCC2)cc1)c1ccc2nccn2c1 [Example 200] 7.46

###

Entries and their IC50 values follow.
- System Under Test: UniProtKB P43490
- Experiment Summary: Assay 1: Biochemical Inhibition Assay (NAMPT enzymatic reaction, NMN quantified by mass spectrometry)
- Assay Context: read-out: Biochemical (IC50)
Unit nM implied. Number only.

Compound	System Under Test	IC50 (nM)
O=C(NCc1ccc(S(=O)(=O)C2CCOCC2)cc1)c1cnc2[nH]ncc2c1	UniProtKB P43490	308

Give IC50 for O=C(NCc1ccc(S(=O)(=O)N2CCC3(CCNC3=O)C2)cc1)c1cnc2[nH]ncc2c1 (stereo not shown) 101

Report IC50 for O=C(NCc1ccc(S(=O)(=O)N2CCC3(CCNC3)C2)cc1)c1ccc2nccn2c1 (stereo not shown) 64.9

Supply IC50 value. Item: CC(C)(C)OC(=O)N1C[C@@H]2OCCN(S(=O)(=O)c3ccc(CNC(=O)c4ccc5nccn5c4)cc3)[C@@H]2C1 (racemic) 75.8

State its IC50 for this compound: CCCN1CCC([S@+]([O-])c2ccc(CNC(=O)c3cc4ccncc4o3)cc2)CC1 35.7

Determine its reported IC50: O=C(NCc1ccc(S(=O)(=O)N2CC3(CCOC3)C2)cc1)c1ccc2nccn2c1 25

Please indicate IC50 recorded for O=C(NCc1ccc(S(=O)(=O)C2CCN(C3COC3)CC2)cc1)c1cnc2nccn2c1 [Example 251] 4.13

Consider the compound NC12CC1CN(S(=O)(=O)c1ccc(CNC(=O)c3ccc4nccn4c3)cc1)C2 (stereo not shown) . State its measured IC50. 68.7

In one line, give reported IC50 of the entry O=C(NCc1ccc(S(=O)(=O)C2CCOCC2)cc1)c1cnc2nccn2c1 [Example 21] . 8.7

Provide one value: measured IC50 of O=C(NCc1ccc(S(=O)(=O)N2CCOC3(CCCNC3)C2)cc1)c1ccc2nccn2c1 (stereo not shown) 43.4

Give the measured IC50 for CC(C)N1CCC([S+]([O-])c2ccc(CNC(=O)N3Cc4ccncc4C3)cc2)CC1 (stereo not shown) 53.7

Identify IC50 associated with the compound CC(=O)N1CCC(S(=O)(=O)c2ccc(CNC(=O)c3cc4ccncc4o3)cc2)CC1 29.3

Tell me its IC50 given CC(C)(C)OC(=O)N1CCCC12CCN(S(=O)(=O)c1ccc(CNC(=O)c3ccc4nccn4c3)cc1)CC2 as the entry. 11.2

Specify measured IC50 for NCC12CC(CN1S(=O)(=O)c1ccc(CNC(=O)c3ccc4nccn4c3)cc1)C2 . 1680

Identify the reported IC50 for the following entry. CC(C)(C)OC(=O)N1CC2CN(S(=O)(=O)c3ccc(CNC(=O)c4ccc5nccn5c4)cc3)CC(C1)O2 (racemic) 330

Check the records and state IC50 for O=C(NCc1ccc(S(=O)(=O)C2CCCOC2)cc1)c1cnc2[nH]ncc2c1 (stereo not shown) [Example 267] 219

###

Entries and their pIC50
- System Under Test: NAMPT (Homo sapiens (Human))
- Experiment Summary: Assay 1: Biochemical Inhibition Assay (NAMPT enzymatic reaction, NMN quantified by mass spectrometry)
- Assay Context: read-out: Biochemical (IC50)
Interpret pIC50 as the negative base-10 log of the concentration measured in mol/L.

Consider the following illustrative entries.
Compound	System Under Test	pIC50
CC(C)(C)OC(=O)N1CCC2(CCCN(S(=O)(=O)c3ccc(CNC(=O)c4ccc5nccn5c4)cc3)C2)C1 (racemic) [Example 102]	NAMPT (Homo sapiens (Human))	7.46
O=C(NCc1ccc(S(=O)(=O)N2CC3COCC(C2)C3O)cc1)c1ccc2nccn2c1 (stereo not shown) [Example 138]	NAMPT (Homo sapiens (Human))	7.54
O=C(NCc1ccc(S(=O)(=O)N2CCC3(CCNC3=O)C2)cc1)c1ccc2nccn2c1 (stereo not shown) [Example 217]	NAMPT (Homo sapiens (Human))	7.80

Pending compound:
Report pIC50, nothing else, for this compound: C[C@@H]1CN(S(=O)(=O)c2ccc(CNC(=O)c3ccc4nccn4c3)cc2)C[C@H]1O (racemic) [Example 139] 7.84

###

- System Under Test: NAMPT (Homo sapiens (Human), UniProt P43490)
- Experiment Summary: Assay 1: Biochemical Inhibition Assay (NAMPT enzymatic reaction, NMN quantified by mass spectrometry);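 further: recombinant His-tagged human NAMPT preincubated with compound 15 min, then reacted 30 min at rt with 1 µM NAM, 100 µM PRPP, 2.5 mM ATP, NMN product read by RapidFire MS, normalized to L-Cystathionine internal standard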
- Assay Context: read-out: Biochemical (IC50)
Parameter: pIC50
Value format note: pIC50 is -log10 of concentration (mol/L); just state the number.

Worked cases, pIC50 given:
Molecule	Readout Value
O=C(NCc1ccc(S(=O)(=O)C2CCCOC2)cc1)c1ccc2nccn2c1 (racemic) [Example 169]	7.48
O=C(NCc1ccc(S(=O)(=O)N2CC3(CCCO3)C2)cc1)c1ccc2nccn2c1	7.72
CC(C)CN1CCC([S+]([O-])c2ccc(CNC(=O)c3cnc4[nH]ncc4c3)cc2)CC1 (stereo not shown)	6.89
O=C(NCc1ccc(S(=O)(=O)N2CCC3(CCCN3)CC2)cc1)c1ccc2nccn2c1	7.19
O=C(NCc1ccc(S(=O)(=O)C2CCN(C3COC3)CC2)cc1)c1ccc2nccn2c1 [Example 114]	7.71
O=C(NCc1ccc(S(=O)(=O)N2CCCC23CCNCC3)cc1)c1ccc2nccn2c1	6.45
O=C(NCc1ccc(S(=O)(=O)C2CCN(C3COC3)CC2)cc1)c1cc2ccncc2s1 [Example 120]	8.37
CC(C)N1CCC([S+]([O-])c2ccc(CNC(=O)c3cnc4[nH]ncc4c3)cc2)CC1 (stereo not shown)	7.54

Entry O=C(NCc1ccc(S(=O)(=O)C2CCNCC2)cc1)c1ccc2nccn2c1 needs its pIC50 filled in; supply it. 7.04

Name the recorded pIC50 of the molecule listed here: O=C(NCc1ccc(S(=O)(=O)C2CCN(C3COC3)CC2)cc1)c1cnc2nccn2c1 [Example 118] 8.39

Given the molecule O=C(NCc1ccc(S(=O)(=O)N2CC3CCNC3C2)cc1)c1ccc2nccn2c1 (stereo not shown) , write its reported pIC50. 6.76

Please indicate pIC50 recorded for O=C(NCc1ccc(S(=O)(=O)C2CCN(C(=O)c3ccccc3)C2)cc1)c1cnc2[nH]ncc2c1 (stereo not shown) 7.15

Look up and state reported pIC50 for CS(=O)(=O)N1CCCC(S(=O)(=O)c2ccc(CNC(=O)c3cnc4[nH]ncc4c3)cc2)C1 (stereo not shown) 5.40

Give recorded pIC50. C[C@@H]1CN(S(=O)(=O)c2ccc(CNC(=O)c3ccc4nccn4c3)cc2)C[C@H](C)N1 7.53

Tell me measured pIC50 for O=C(NCc1ccc(S(=O)(=O)N2CC3CCC(F)(F)C3C2)cc1)c1ccc2nccn2c1 (single isomer, unassigned) [Example 73] please. 8.52
